test system: A549 NSCLC; test: NCI tumour cell line growth inhibition, 48 h
Consider the following compounds; for each one, report its TGI.
One number for each entry, in µM.

CCC1(CC)N=C(C(F)(F)F)c2cc(C(=O)C(F)(F)F)c3ccccc3c2N1    60.7
Cc1c2ccncc2c(C)c2c1sc1ccccc12    18.3
O=C(Nc1cc(Cl)ccc1O)c1cccc(Nc2ccnc(C(F)(F)F)c2)c1    66
CC(=O)/C(Br)=C/c1ccc(Br)o1    86.4

Switching to the query record.
Prompt: Identify measured TGI obtained with A549 NSCLC for "Cc1c2ccncc2c(C)c2c1[nH]c1ccc(Oc3ccccc3)cc12" .
Completion: 4.8

====

Consider the following compounds; for each one, report its TGI.
tested on: SNB-78 CNS; test: NCI tumour cell line growth inhibition, 48 h

CN(C)CCOc1cc2c(c3ccccc13)-c1ccccc1C2O (stereo not given)    31.6 µM
Nc1nc2c(-c3ccc([N+](=O)[O-])cc3)nnn2c2ccccc12    > 100 µM
CC(=O)OCC1OC(NC(=O)N(CCCl)N=O)C(OC(C)=O)C(OC(C)=O)C1OC(C)=O (stereo not given)    > 100 µM
CC1(C)C(=O)C(C)(C)C1=NNC(N)=S    > 100 µM

Switching to the query record.
Prompt: Kindly indicate its recorded TGI. Item: "COc1ccc(OC)c(NC(=O)C(=O)CC(=O)c2sc(-n3nc(-c4ccccc4)cc3-c3ccccc3)nc2C)c1"
Completion: > 100 µM

====

test system: NCI-H226 lung; assay: NCI tumour cell line growth inhibition, 48 h; in the data active means GI50 below about 0.43 µM; inactive means the rest
Outcome field: choose from active, inactive

CCOc1ccc(C(C[N+](=O)[O-])Sc2ccccc2N)cc1 (stereo not given)    inactive
O=C(/C=C/c1ccccn1)c1ccc(OCc2nnc(-c3ccc(Cl)cc3)o2)cc1    inactive
[N-]=[N+]=NCCCn1c2c(c3ccc([N+](=O)[O-])cc3c1=O)C(=O)c1cc(-c3ccccc3)ccc1-2    inactive

Now consider a different compound.
Prompt: Give the logged outcome of this assay for the following compound: "O=C1Nc2ccccc2/C1=C\c1nc(-c2ccccc2F)n2ccccc12"
Completion: inactive

====

Consider the following compounds; for each one, report its log10(TGI).
test system: SK-MEL-2 melanoma; test: NCI tumour cell line growth inhibition, 48 h
The figures below represent log10 of TGI, where TGI is stated in µM.

As a guide, the following entries are already answered.
Clc1cccc(CNc2c3ccccc3nc3ccccc23)c1    0.63
CC1=C(C(=O)Nc2ccc(F)c(Cl)c2)C(c2cccc(Oc3ccccc3)c2)NC(=S)N1 (stereo not given)    1.43
COc1cc2cc3c4c(cc(OC)c(OC)c4c2cc1OC)CCN3C    1.48
CCCCCCCCCCNCCSS(=O)(=O)O    0.82
CS(=O)(=O)c1cccc(Nc2ncc3cc(-c4ccccc4Cl)ccc3n2)c1    0.42

# batch size: 5; output log10(TGI) per entry
1. O=C(/C=C/c1ccccn1)c1ccc(OCc2nnc(-c3ccc(Cl)cc3)o2)cc1
2. O=C(NCCOCCOCCOCCNC(=O)c1cc2c(o1)C(=O)c1ccccc1C2=O)NC12CC3CC(CC(C3)C1)C2
3. O=C(c1ccc([N+](=O)[O-])cc1)C(Br)C(Br)c1ccnc2ccccc12 (stereo not given)
4. CN(C)Cc1ccc(NC(=O)c2cncc(C#Cc3cnc(N)c4ncccc34)c2)cc1F
5. O=C1C=C(OCC=C(C(F)(F)F)C(F)(F)F)c2ccccc2C1=O

Completion:
1: 0.94; 2: 0.74; 3: 1.42; 4: 1.55; 5: 0.61

Prompt: Kindly indicate its recorded log10(TGI). Item: "NCCCNc1nc2ccccc2c2c(=O)c3cccc(Cl)c3sc12"
Completion: 0.58
